molecular target: PIK3CA (UniProt P42336)
Sequence (P42336 whole entry, looked up): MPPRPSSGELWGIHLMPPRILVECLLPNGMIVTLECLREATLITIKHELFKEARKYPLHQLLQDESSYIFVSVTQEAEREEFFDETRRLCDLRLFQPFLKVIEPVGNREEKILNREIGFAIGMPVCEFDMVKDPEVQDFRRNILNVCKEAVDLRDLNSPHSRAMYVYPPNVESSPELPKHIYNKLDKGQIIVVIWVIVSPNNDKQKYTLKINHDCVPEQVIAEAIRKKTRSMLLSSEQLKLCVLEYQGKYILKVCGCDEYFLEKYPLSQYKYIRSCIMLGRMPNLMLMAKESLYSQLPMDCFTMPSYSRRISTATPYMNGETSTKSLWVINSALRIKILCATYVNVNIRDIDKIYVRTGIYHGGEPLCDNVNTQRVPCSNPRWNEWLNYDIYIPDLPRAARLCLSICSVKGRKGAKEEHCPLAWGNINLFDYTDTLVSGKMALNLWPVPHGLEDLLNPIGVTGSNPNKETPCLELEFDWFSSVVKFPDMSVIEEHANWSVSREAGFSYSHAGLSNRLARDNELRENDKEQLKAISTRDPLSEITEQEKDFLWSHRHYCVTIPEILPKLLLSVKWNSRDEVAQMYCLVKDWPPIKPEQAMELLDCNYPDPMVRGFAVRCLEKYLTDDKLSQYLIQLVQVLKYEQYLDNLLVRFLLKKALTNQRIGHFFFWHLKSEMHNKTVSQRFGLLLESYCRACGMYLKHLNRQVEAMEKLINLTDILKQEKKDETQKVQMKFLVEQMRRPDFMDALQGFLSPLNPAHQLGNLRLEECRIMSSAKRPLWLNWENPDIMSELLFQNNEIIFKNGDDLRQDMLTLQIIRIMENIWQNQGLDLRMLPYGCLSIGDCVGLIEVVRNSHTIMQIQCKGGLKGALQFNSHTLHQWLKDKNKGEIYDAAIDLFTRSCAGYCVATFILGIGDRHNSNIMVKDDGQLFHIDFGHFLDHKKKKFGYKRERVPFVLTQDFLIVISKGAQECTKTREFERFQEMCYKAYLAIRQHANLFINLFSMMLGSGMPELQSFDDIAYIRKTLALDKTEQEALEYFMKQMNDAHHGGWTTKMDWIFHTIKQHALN
parameter measured: IC50 (µM)
Note: unit µM is implicit; provide only the numeric part.

>  <smiles>
O=c1cc(N2CCOCC2)oc2ccccc12

>  <target>
PIK3CA (UniProt P42336)

>  <parameter measured>
IC50

>  <unit>
µM

>  <test value>
45

$$$$
>  <smiles>
Cc1cc(Nc2cccc(C)c2C)c2nc(N3CCOCC3)cc(=O)n2c1

>  <target>
PIK3CA (UniProt P42336)

>  <parameter measured>
IC50

>  <unit>
µM

>  <test value>
6.2

$$$$
>  <smiles>
CC(=O)c1ccc(N2CCOCC2)cc1O

>  <target>
PIK3CA (UniProt P42336)

>  <parameter measured>
IC50

>  <unit>
µM

>  <test value>
16

$$$$
>  <smiles>
Cc1cc(Nc2ccc(C)c(C)c2)c2nc(N3CCOCC3)cc(=O)n2c1

>  <target>
PIK3CA (UniProt P42336)

>  <parameter measured>
IC50

>  <unit>
µM

>  <test value>
10

$$$$

--- query ---
query: Record O=C(CCl)c1ccc(N2CCOCC2)cc1O : what is its IC50 with PIK3CA (UniProt P42336)?
result: 30
